biological target: T1, EGFR-ECD (extracellular domain of human epidermal growth factor receptor, 1-643) (Homo sapiens, UniProt P00533, N-linked oligosaccharides cleaved by endoglycosidase H); assay: SPR; BIAcore 3000; EGFR-ECD immobilised on a CM5 chip by amine coupling; single-cycle kinetics with 50.0, 16.6, 5.55, 1.85 and 0.617 nM Fv or Fab; 30 ul/min, 60-s association, 120-s dissociation; 25 C; HBS-EP+ buffer; triplicate; details: both partners purified
T1 construct: human epidermal growth factor receptor, extracellular domain, residues 1-643 as printed; A TEV site between the ECD and the His-tag is implied by the cleavage; also called extracellular domain of human EGFR; human EGFR-ECD; source: HEK293S GnTI- cells, transient overexpression, secreted; purified (HisTrap, TEV cleavage of the His-tag, endoglycosidase H, HiTrap Q, SEC); not shown: His-tag, …
MEASURED QUANTITY: koff (s⁻¹)

[[record]]
binder = "Alexa-488 conjugated 059-152-Fv (other, human, also in PDB 5XWD; linker inserted just before the stop codon, followed by the amber codon that is read as AzF; Fv; m3 after copper-free click chemistry; also called Alexa-488 conjugated Fv; not shown: N11-tag, N-terminal, cleaved) VH: QVQLQESGPGLVKPSETLSLTCTVSGGSISSSSYYWGWIRQPPGKGLEWIGSIYYSGSTYYNPSLKSRVTISVDTSKNQFSLKLSSVTAADTAVYYCARLPMVTMSFDYWGQGTLVTVSS VL: SYVLTQPPSVSVAPGKTARITCGGNNIGSKSVHWYQQKPGQAPVLVIYYDSDRPSGIPERFSGSNSGNTATLTISRVEAGDEADYYCQVWDSSSDHVVFGGGTKLTVL"
measured_quantity = "koff"
unit_of_measure = "s⁻¹"
endpoint_value = 0.0154

[[record]]
binder = "Alexa-488 conjugated 059-152-Fab (Fab, V domains shown, also in PDB 5XWD; linker inserted just before the stop codon, followed by the amber codon that is read as AzF; m6 after copper-free click chemistry; also called Alexa-488 conjugated Fab; not shown: N11-tag, N-terminal, cleaved) VH: QVQLQESGPGLVKPSETLSLTCTVSGGSISSSSYYWGWIRQPPGKGLEWIGSIYYSGSTYYNPSLKSRVTISVDTSKNQFSLKLSSVTAADTAVYYCARLPMVTMSFDYWGQGTLVTVSS VL: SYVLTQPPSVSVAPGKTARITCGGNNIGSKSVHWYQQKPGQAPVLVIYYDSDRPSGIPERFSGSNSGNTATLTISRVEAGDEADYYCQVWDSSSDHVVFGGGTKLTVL"
measured_quantity = "koff"
unit_of_measure = "s⁻¹"
endpoint_value = 0.0133

